Biological target: FLT-3 WT (Homo sapiens, UniProt P36888)
Sequence (P36888 27-993): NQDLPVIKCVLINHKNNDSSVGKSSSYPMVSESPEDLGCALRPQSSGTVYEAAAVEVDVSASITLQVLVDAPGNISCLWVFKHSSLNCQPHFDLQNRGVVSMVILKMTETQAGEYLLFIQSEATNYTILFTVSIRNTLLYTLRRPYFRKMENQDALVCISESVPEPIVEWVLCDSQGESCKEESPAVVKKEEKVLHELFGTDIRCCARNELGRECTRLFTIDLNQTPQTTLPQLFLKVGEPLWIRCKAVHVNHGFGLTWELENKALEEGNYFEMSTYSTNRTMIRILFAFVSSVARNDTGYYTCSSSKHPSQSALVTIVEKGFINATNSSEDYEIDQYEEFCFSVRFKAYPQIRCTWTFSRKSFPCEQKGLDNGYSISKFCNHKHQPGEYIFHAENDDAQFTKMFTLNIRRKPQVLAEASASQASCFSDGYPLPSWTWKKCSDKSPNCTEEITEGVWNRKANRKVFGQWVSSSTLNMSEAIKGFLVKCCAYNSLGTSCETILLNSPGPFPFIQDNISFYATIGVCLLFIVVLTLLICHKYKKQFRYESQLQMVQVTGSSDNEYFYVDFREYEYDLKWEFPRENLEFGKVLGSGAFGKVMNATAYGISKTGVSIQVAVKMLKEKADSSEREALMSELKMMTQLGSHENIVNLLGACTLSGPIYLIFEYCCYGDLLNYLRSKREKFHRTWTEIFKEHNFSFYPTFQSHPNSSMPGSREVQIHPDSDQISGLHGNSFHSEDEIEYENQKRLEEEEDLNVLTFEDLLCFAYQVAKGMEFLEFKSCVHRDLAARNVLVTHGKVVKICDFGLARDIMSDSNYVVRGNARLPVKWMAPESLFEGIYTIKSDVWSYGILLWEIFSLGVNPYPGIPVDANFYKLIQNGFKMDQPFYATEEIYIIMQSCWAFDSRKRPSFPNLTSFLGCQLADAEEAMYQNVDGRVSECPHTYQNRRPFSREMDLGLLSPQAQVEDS
pIC50: −log10 of the molar value.

molecule	pIC50
CC(C)(C)c1ccc(C(=O)Nc2ccc(C(N)=O)c(NC3CCCNC3)c2)cc1 (stereo not shown) [PCW-A1001]	5.60
